# System: Alopecurus myosuroides (ALOMY)
# assay_remarks: Post-emergence herbicidal activity
# Format: in vivo
# assay_setup: post-emergence application, 1000 g/Ha, evaluated after 13 days, scale 0-5
reported_endpoint: Control of weed species, ALOMY (damage score)

{"compound": "CN(C(=O)OC(C)(C)C)c1sc(-c2cncc(Cl)c2)nc1C(F)(F)F", "observed_result": 1}
{"compound": "CN(C(=O)OC(C)(C)C)c1sc(-c2cccnc2)nc1C(F)(F)F", "observed_result": 1}
{"compound": "Cc1nc(-c2cncc(Cl)c2)sc1N(C)C(=O)OC(C)(C)C", "observed_result": 0}
{"compound": "Cc1nc(-c2cncc(F)c2)sc1N1CCOC1=O", "observed_result": 1}
{"compound": "CN(C(=O)OC(C)(C)C)c1sc(-c2cccnc2)nc1Br", "observed_result": 1}

The reported numbers originate from patent US11470846B2.
